target_or_test_system: B7-H4 purified monomeric recombinant human protein (Homo sapiens, UniProt Q7Z7D3)
Sequence (Q7Z7D3 25-259): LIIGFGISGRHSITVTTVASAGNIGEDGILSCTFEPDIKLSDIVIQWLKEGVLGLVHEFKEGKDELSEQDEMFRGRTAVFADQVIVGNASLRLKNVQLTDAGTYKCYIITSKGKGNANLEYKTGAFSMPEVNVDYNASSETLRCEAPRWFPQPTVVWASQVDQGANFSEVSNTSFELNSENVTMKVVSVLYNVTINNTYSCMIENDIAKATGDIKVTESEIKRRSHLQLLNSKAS
assay_protocol: SPR
recorded_metric: pKd
# pKd is unitless: minus log10 of the molar concentration; print number only

Exercise: Quick one: pKd of B06 (scFv, V domains shown) VH: EVQLVESGGGVVQPGRSLRLSCAASGFTFSNKAMNWVRQAPGKGLEWVSAISGSGATTYYADSVKGRFTISRDNSKNTLYLQMNSLRAEDTAVYYCARKRWYGMDVWGQGTTVTVSS VL: SYELTQPPSVSVAPGKTARITCGGNNIGVKAVHWYQQKPGQAPVLVVYDDSDRPSGIPERFSGSNSGNTATLTISRVEAGDEADYYCQVWDRGMIFGTGTKLTVL ?
Key: 10.01

Exercise: Request: A07 (scFv, V domains shown) VH: EVQLVESGGGVVQPGRSLRLSCAASGFTFSSRSMNWVRQAPGKGLEWVSAISGSGSTVYYADSVKGRFTISRDNSKNTLYLQMNSLRAEDTAVYYCARKRWYGMDVWGQGTTVTVSS VL: SYELTQPPSVSVAPGKTARITCGGNNIGSKSVHWYQQKPGQAPVLVVYDDSDRPSGIPERFSGSNSGNTATLTISRVEAGDEADYYCQVWDSRTYVFGTGTKLTVL
Key: 9.56

Exercise: Request: A11 (scFv, V domains shown) VH: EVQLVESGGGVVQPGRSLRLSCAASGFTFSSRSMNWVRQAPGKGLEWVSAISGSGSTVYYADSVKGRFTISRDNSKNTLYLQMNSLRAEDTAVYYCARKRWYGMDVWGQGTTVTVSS VL: SYELTQPPSVSVAPGKTARITCGGNNIGSKSVHWYQQKPGQAPVLVVYDDSDRPSGIPERFSGSNSGNTATLTISRVEAGDEADYYCQVWDRGMIFGTGTKLTVL
Key: 10.22
